target: T1, human CD33 extracellular domain (human, UniProt P20138 18-259); assay: SPR, Fab captured, 37C;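 further: surface plasmon resonance with Fabs captured on anti-Fab surface, soluble monomeric CD33 as analyte at several concentrations, double-referenced 1:1 model fit, KD as koff/kon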
T1 construct: soluble monomeric ECD; also called human CD33 ECD; hCD33
Recorded measurements of Kd, one per entry

BINDER	UNITS	Kd
ADI-11809 Fab (Fab, V domains shown, Fab fragment; also called Ab6) VH: EVQLVESGGGLVQPGGSLRLSCAASGFTFPSYWMSWVRQAPGKGLEWVATIKRDGSEKGYVDSVKGRFTISRDNAKNSLYLQMNSLRAEDTAVYYCARPLNAGELDVWGQGTMVTVSS VL: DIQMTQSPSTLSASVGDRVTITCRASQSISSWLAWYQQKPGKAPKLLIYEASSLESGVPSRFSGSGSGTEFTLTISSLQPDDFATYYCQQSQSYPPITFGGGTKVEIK	nM	0.0012
ADI-11825 Fab (Fab, V domains shown, Fab fragment; also called Ab25) VH: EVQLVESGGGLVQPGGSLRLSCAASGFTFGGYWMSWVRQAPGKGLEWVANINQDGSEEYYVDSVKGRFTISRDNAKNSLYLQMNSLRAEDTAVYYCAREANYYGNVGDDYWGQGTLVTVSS VL: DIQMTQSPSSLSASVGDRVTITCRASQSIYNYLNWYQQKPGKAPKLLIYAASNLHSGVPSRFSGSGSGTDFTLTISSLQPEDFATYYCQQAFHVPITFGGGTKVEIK	nM	1.78
ADI-11807 Fab (Fab, V domains shown, Fab fragment; also called Ab5; I07) VH: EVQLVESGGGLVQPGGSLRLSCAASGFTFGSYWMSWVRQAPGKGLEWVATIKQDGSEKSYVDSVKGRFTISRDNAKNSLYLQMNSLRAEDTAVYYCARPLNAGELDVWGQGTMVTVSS VL: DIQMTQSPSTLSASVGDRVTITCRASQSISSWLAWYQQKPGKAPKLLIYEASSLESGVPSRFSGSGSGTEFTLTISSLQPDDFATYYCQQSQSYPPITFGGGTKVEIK	nM	0.29
ADI-11826 Fab (Fab, V domains shown, Fab fragment; also called Ab26) VH: EVQLVESGGGLVQPGGSLRLSCAASGFTFPGYWMSWVRQAPGKGLEWVANINQDGSEVYYVDSVKGRFTISRDNAKNSLYLQMNSLRAEDTAVYYCAREANYYGNVGDDYWGQGTLVTVSS VL: DIQMTQSPSSLSASVGDRVTITCRASQSIYNYLNWYQQKPGKAPKLLIYAASSTQSGVPSRFSGSGSGTDFTLTISSLQPEDFATYYCQQAFHVPITFGGGTKVEIK	nM	2.63
ADI-10164 Fab (Fab, V domains shown, Fab fragment; also called Ab18) VH: QVQLQESGPGLVKPSETLSLTCAVSGYSISSGYYWGWIRQPPGKGLEWIGSIYHSGSTNYNPSLKSRVTISVDTSKNQFSLKLSSVTAADTAVYYCARLPPWFGFSYFDLWGRGTLVTVSS VL: EIVLTQSPATLSLSPGERATLSCRASQSVSSYLAWYQQKPGQAPRLLIYDASNRATGIPARFSGSGSGTDFTLTISSLEPEDFAVYYCQQVDNYPPTFGGGTKVEIK	nM	31.5

The measurements presented in this section are drawn from patent US20220380459A1.
